Molecular target: Melanocyte-stimulating hormone receptor (Mus musculus, UniProt Q01727)
Sequence (Q01727 whole entry): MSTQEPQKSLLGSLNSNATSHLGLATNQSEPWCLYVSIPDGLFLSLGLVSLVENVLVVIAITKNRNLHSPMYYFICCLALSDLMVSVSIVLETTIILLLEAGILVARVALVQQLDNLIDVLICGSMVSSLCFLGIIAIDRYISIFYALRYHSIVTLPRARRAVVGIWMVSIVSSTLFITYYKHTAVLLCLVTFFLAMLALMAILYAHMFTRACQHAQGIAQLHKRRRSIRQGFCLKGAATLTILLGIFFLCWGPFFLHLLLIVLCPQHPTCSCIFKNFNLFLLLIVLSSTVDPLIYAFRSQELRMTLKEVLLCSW
Experiment: In vitro activation of mouse recombinant Melanocortin-1 receptor.
Where a SMILES comes first, the peptide text is derived from it. [ ]: non-standard residue; d: D form. Tic = O=C(O)[C@@H]1Cc2ccccc2CN1; dTic = O=C(O)[C@H]1Cc2ccccc2CN1; 2Thi = N[C@@H](Cc1cccs1)C(=O)O
# EC50 annotations
Please respond with the number in nM and leave the unit unwritten.

[
  {
    "Compound": "CC(=O)N[C@@H](Cc1ccccc1)C(=O)N[C@H](Cc1ccccc1)C(=O)N[C@@H](CCCNC(=N)N)C(=O)N[C@@H](Cc1c[nH]c2ccccc12)C(N)=O",
    "EC50, nM": 503
  },
  {
    "Compound": "CC(=O)NC1(C(=O)N[C@H](Cc2ccccc2)C(=O)N[C@@H](CCCNC(=N)N)C(=O)N[C@@H](Cc2c[nH]c3ccccc23)C(N)=O)CCc2ccccc2C1 (some centres undefined)",
    "EC50, nM": 7730
  },
  {
    "Compound": "CC(=O)N1Cc2ccccc2C[C@@H]1C(=O)N[C@H](Cc1ccccc1)C(=O)N[C@@H](CCCN=C(N)N)C(=O)N[C@@H](Cc1c[nH]c2ccccc12)C(N)=O (Ac-[dTic][dF]RW-NH2)",
    "EC50, nM": 11300
  },
  {
    "Compound": "CC(=O)N[C@@H](Cc1cccs1)C(=O)N[C@H](Cc1ccccc1)C(=O)N[C@@H](CCCNC(=N)N)C(=O)N[C@@H](Cc1c[nH]c2ccccc12)C(N)=O (Ac-[2Thi][dF]RW-NH2)",
    "EC50, nM": 203
  },
  {
    "Compound": "CC(=O)N[C@@H](Cc1csc2ccccc12)C(=O)N[C@H](Cc1ccccc1)C(=O)N[C@@H](CCCN=C(N)N)C(=O)N[C@@H](Cc1c[nH]c2ccccc12)C(N)=O",
    "EC50, nM": 4400
  },
  {
    "Compound": "CC(=O)N[C@@H](Cc1ccncc1)C(=O)N[C@H](Cc1ccccc1)C(=O)N[C@@H](CCCN=C(N)N)C(=O)N[C@@H](Cc1c[nH]c2ccccc12)C(N)=O",
    "EC50, nM": 176
  },
  {
    "Compound": "CC(=O)N1CCC[C@H]1C(=O)N[C@H](Cc1ccccc1)C(=O)N[C@@H](CCCN=C(N)N)C(=O)N[C@@H](Cc1c[nH]c2ccccc12)C(N)=O (Ac-P[dF]RW-NH2)",
    "EC50, nM": 4250
  },
  {
    "Compound": "CC(=O)N1Cc2ccccc2C[C@H]1C(=O)N[C@H](Cc1ccccc1)C(=O)N[C@@H](CCCNC(=N)N)C(=O)N[C@@H](Cc1c[nH]c2ccccc12)C(N)=O (Ac-[Tic][dF]RW-NH2)",
    "EC50, nM": 2600
  }
]

Which EC50 value belongs to CC(=O)N[C@@H](Cc1cccnc1)C(=O)N[C@H](Cc1ccccc1)C(=O)N[C@@H](CCCN=C(N)N)C(=O)N[C@@H](Cc1c[nH]c2ccccc12)C(N)=O ?
1150

This collection of values is drawn from ChEMBL document CHEMBL1135436.
